# experimental.target: human mAChR M4 (Homo sapiens, UniProt P08173)
# Construct: expressed in transfected cells; host or cells: CHO-K1 (American Type Culture Collection), stably expressing hM4 and Gqi5
# protocol.description: mAChR M4 cell-based functional assay: calcium mobilization (Fluo-4, FDSS), potentiation of EC20 acetylcholine response in hM4-Gqi5 CHO-K1 cells
# particulars: CHO-K1, % ACh maximum at 30 μM; human M4
# Protocol: […] Calcium flux was measured using the Functional Drug Screening System (FDSS) 6000 or 7000 (Hamamatsu Corporation, Tokyo, Japan) as an increase in the fluorescent static ratio. […] Agonist activity was analyzed as a concentration-dependent increase in calcium mobilization upon compound addition. Positive allosteric modulator activity was analyzed as a concentration-dependent increase in the EC20 acetylcholine response. […]
property.name: Emax at 30 µM (%)
Response body: numeric value in %, unit text excluded.

Please give the measured Emax at 30 µM for this compound: COc1cncc(-c2cnc3c(c2)CN(c2nn4c(=O)cc(C)nc4c(C)c2C)CC3)c1 [Compound 1-199]
74

Please give the measured Emax at 30 µM for this compound: [2H]C1([2H])Cc2ncc(Nc3cccnc3C)cc2C([2H])([2H])N1c1nn2c(=O)ccnc2cc1C [Compound 2-163]
79

Please give the measured Emax at 30 µM for this compound: Cc1cc(=O)n2nc(N3CCc4ncc(N5CC6CCC(C5)O6)cc4C3)c(C)c(C)c2n1 [Compound 2-43]
76

Please give the measured Emax at 30 µM for this compound: Cc1cc(F)c(F)c(-c2cnc3c(c2)CN(c2nn4c(=O)cc(C)nc4cc2C)CC3)c1 [Compound 1-252]
70

Please give the measured Emax at 30 µM for this compound: Cc1c(N2CCc3ncc(N4CCCn5nccc54)cc3C2)nn2c(=O)cc(C(F)(F)F)nc2c1C [Compound 2-30]
83

Please give the measured Emax at 30 µM for this compound: Cc1cc(=O)n2nc(N3CCc4ncc(-c5ccncc5C)cc4C3)c(C)cc2n1 [Compound 1-241]
87

Please give the measured Emax at 30 µM for this compound: Cc1cc2nccc(=O)n2nc1N1CCc2ncc(-c3ccc(C#N)nc3C)cc2C1 [Compound 1-421]
97

Please give the measured Emax at 30 µM for this compound: Cc1cc(=O)n2nc(N3CCc4ncc(-c5ccccc5C)cc4C3)c(C)cc2n1 [Compound 1-237]
100

###

# experimental.target: human mAChR M4 (Homo sapiens)
# Sequence (P08173 1-479): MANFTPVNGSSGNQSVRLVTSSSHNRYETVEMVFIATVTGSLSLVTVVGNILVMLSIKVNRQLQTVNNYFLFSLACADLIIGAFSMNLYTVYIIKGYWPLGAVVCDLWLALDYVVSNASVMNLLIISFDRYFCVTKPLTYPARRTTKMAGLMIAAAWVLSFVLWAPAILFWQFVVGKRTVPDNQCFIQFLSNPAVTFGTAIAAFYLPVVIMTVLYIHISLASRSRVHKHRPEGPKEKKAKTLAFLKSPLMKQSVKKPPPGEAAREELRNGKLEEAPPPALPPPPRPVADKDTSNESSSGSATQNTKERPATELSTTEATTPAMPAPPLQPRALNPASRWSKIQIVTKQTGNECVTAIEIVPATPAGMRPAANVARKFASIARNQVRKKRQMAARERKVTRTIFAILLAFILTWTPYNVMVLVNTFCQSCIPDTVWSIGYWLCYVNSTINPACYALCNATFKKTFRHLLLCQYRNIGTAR
# protocol.description: mAChR M4 cell-based functional assay: calcium mobilization (Fluo-4, FDSS), potentiation of EC20 acetylcholine response in hM4-Gqi5 CHO-K1 cells
# particulars: potentiation of EC20 acetylcholine response, calcium mobilization, human M4
property.name: EC50
Answer with the value and then the unit.

Previously resolved entries follow.
- compound.structure: "Cc1cc2nccc(=O)n2nc1N1CCc2ncc(-c3cc(F)cc(F)c3C)cc2C1"
  EC50: "191 nM"
- compound.structure: "Cc1cc2nccc(=O)n2nc1N1CCc2ncc(-c3ccc(C#N)nc3C)cc2C1"
  EC50: "2420 nM"
- compound.structure: "Cc1cc2nccc(=O)n2nc1N1CCc2ncc(-c3cccnc3C(C)C)cc2C1"
  EC50: "1720 nM"
- compound.structure: "Cc1cc2ncc(Cl)c(=O)n2nc1N1CCc2ncc(Nc3ccncc3F)cc2C1"
  EC50: "3 nM"
- compound.structure: "Cc1cc2nccc(=O)n2nc1N1CCc2ncc(Nc3cccc(F)c3)cc2C1"
  EC50: "20 nM"

Please give the measured EC50 for this compound: Cc1cc(=O)n2nc(N3CCc4ncc(-c5ccc(C6CC6)nc5)cc4C3)c(C)c(C)c2n1
768 nM

Please give the measured EC50 for this compound: Cc1cc(=O)n2nc(N3CCc4ncc(-c5cnn(-c6ccccc6F)c5)cc4C3)c(C)c(C)c2n1
2470 nM

Please give the measured EC50 for this compound: Cc1ccc(Nc2cnc3c(c2)CN(c2nn4c(=O)ccnc4cc2C)CC3)c(F)n1
329 nM
